system: HeLa Kyoto; experiment: thermal stability score vs G1/S (z-score of summed log2 fold changes over temperatures); higher = more thermally stable than in G1/S; details: cell cycle stage: mitosis
Use condition met when the recorded thermal stability score is no lower than -1; use condition not met when it is lower.

Solved cases (6 shown):
>>> group("MADAASQVLLGSGLTILSQPLMYVKVLIQVGYEPLPPTIGRNIFGRQVCQLPGLFSYAQHIASIDGRRGLFTGLTPRLCSGVLGTVVHGKVLQHYQESDKGEELGPGNVQKEVSSSFDHVIKETTREMIARSAATLITHPFHVITLRSMVQFIGRESKYCGLCDSIITIYREEGILGFFAGLVPRLLGDILSLWLCNSLAYLVNTYALDSGVSTMNEMKSYSQAVTGFFASMLTYPFVLVSNLMAVNNCGLAGGCPPYSPIYTSWIDCWCMLQKEGNMSRGNSLFFRKVPFGKTYCCDLKMLI [MTCH2]")
"condition not met"
>>> group("MENSQLCKLFIGGLNVQTSESGLRGHFEAFGTLTDCVVVVNPQTKRSRCFGFVTYSNVEEADAAMAASPHAVDGNTVELKRAVSREDSARPGAHAKVKKLFVGGLKGDVAEGDLIEHFSQFGTVEKAEIIADKQSGKKRGFGFVYFQNHDAADKAAVVKFHPIQGHRVEVKKAVPKEDIYSGGGGGGSRSSRGGRGGRGRGGGRDQNGLSKGGGGGYNSYGGYGGGGGGGYNAYGGGGGGSSYGGSDYGNGFGGFGSYSQHQSSYGPMKSGGGGGGGGSSWGGRSNSGPYRGGYGGGGGYGGSSF [HNRNPA0]")
"condition met"
>>> group("MAAAAAGTATSQRFFQSFSDALIDEDPQAALEELTKALEQKPDDAQYYCQRAYCHILLGNYCVAVADAKKSLELNPNNSTAMLRKGICEYHEKNYAAALETFTEGQKLDIETGFHRVGQAGLQLLTSSDPPALDSQSAGITGADANFSVWIKRCQEAQNGSESEVWTHQSKIKYDWYQTESQVVITLMIKNVQKNDVNVEFSEKELSALVKLPSGEDYNLKLELLHPIIPEQSTFKVLSTKIEIKLKKPEAVRWEKLEGQGDVPTPKQFVADVKNLYPSSSPYTRNWDKLVGEIKEEEKNEKLEGDAALNRLFQQIYSDGSDEVKRAMNKSFMESGGTVLSTNWSDVGKRKVEINPPDDMEWKKY [SUGT1]")
"condition met"
>>> group("MEGGLGRAVCLLTGASRGFGRTLAPLLASLLSPGSVLVLSARNDEALRQLEAELGAERSGLRVVRVPADLGAEAGLQQLLGALRELPRPKGLQRLLLINNAGSLGDVSKGFVDLSDSTQVNNYWALNLTSMLCLTSSVLKAFPDSPGLNRTVVNISSLCALQPFKGWALYCAGKAARDMLFQVLALEEPNVRVLNYAPGPLDTDMQQLARETSVDPDMRKGLQELKAKGKLVDCKVSAQKLLSLLEKDEFKSGAHVDFYDK [SPR]")
"condition not met"
>>> group("MAHQTGIHATEELKEFFAKARAGSVRLIKVVIEDEQLVLGASQEPVGRWDQDYDRAVLPLLDAQQPCYLLYRLDSQNAQGFEWLFLAWSPDNSPVRLKMLYAATRATVKKEFGGGHIKDELFGTVKDDLSFAGYQKHLSSCAAPAPLTSAERELQQIRINEVKTEISVESKHQTLQGLAFPLQPEAQRALQQLKQKMVNYIQMKLDLERETIELVHTEPTDVAQLPSRVPRDAARYHFFLYKHTHEGDPLESVVFIYSMPGYKCSIKERMLYSSCKSRLLDSVEQDFHLEIAKKIEIGDGAELTAEFLYDEVHPKQHAFKQAFAKPKGPGGKRGHKRLIRGPGENGDDS [TWF2]")
"condition not met"
>>> group("MAAVAATAAAKGNGGGGGRAGAGDASGTRKKKGPGPLATAYLVIYNVVMTAGWLVIAVGLVRAYLAKGSYHSLYYSIEKPLKFFQTGALLEILHCAIGIVPSSVVLTSFQVMSRVFLIWAVTHSVKEVQSEDSVLLFVIAWTITEIIRYSFYTFSLLNHLPYLIKWARYTLFIVLYPMGVSGELLTIYAALPFVRQAGLYSISLPNKYNFSFDYYAFLILIMISYIPIFPQLYFHMIHQRRKILSHTEEHKKFE [HACD2]")
"condition met"

Tell me whether thermal stability score is at least -1 here: MSDTAVADTRRLNSKPQDLTDAYGPPSNFLEIDIFNPQTVGVGRARFTTYEVRMRTNLPIFKLKESCVRRRYSDFEWLKNELERDSKIVVPPLPGKALKRQLPFRGDEGIFEESFIEERRQGLEQFINKIAGHPLAQNERCLHMFLQEEAIDRNYVPGKVRQ [SNX12]
condition not met

Tell me whether thermal stability score is at least -1 here: MDLFGDLPEPERSPRPAAGKEAQKGPLLFDDLPPASSTDSGSGGPLLFDDLPPASSGDSGSLATSISQMVKTEGKGAKRKTSEEEKNGSEELVEKKVCKASSVIFGLKGYVAERKGEREEMQDAHVILNDITEECRPPSSLITRVSYFAVFDGHGGIRASKFAAQNLHQNLIRKFPKGDVISVEKTVKRCLLDTFKHTDEEFLKQASSQKPAWKDGSTATCVLAVDNILYIANLGDSRAILCRYNEESQKHAALSLSKEHNPTQYEERMRIQKAGGNVRDGRVLGVLEVSRSIGDGQYKRCGVTSVPDIRRCQLTPNDRFILLACDGLFKVFTPEEAVNFILSCLEDEKIQTREGKSAADARYEAACNRLANKAVQRGSADNVTVMVVRIGH [ILKAP]
condition met

Tell me whether thermal stability score is at least -1 here: MDVFLMIRRHKTTIFTDAKESSTVFELKRIVEGILKRPPDEQRLYKDDQLLDDGKTLGECGFTSQTARPQAPATVGLAFRADDTFEALCIEPFSSPPELPDVMKPQDSGSSANEQAVQ [TCEB2]
condition met

Tell me whether thermal stability score is at least -1 here: MVHQVLYRALVSTKWLAESIRTGKLGPGLRVLDASWYSPGTREARKEYLERHVPGASFFDIEECRDTASPYEMMLPSEAGFAEYVGRLGISNHTHVVVYDGEHLGSFYAPRVWWMFRVFGHRTVSVLNGGFRNWLKEGHPVTSEPSRPEPAVFKATLDRSLLKTYEQVLENLESKRFQLVDSRSQGRFLGTEPEPDAVGLDSGHIRGAVNMPFMDFLTEDGFEKGPEELRALFQTKKVDLSQPLIATCRKGVTACHVALAAYLCGKPDVAVYDGSWSEWFRRAPPESRVSQGKSEKA [TST]
condition met

* * *

In this section, each of the sequences is paired with its reported solubility in G1/S (log2).
system: HeLa Kyoto; experiment: solubility in G1/S (NP-40 vs SDS abundance) (log2 ratio); higher = more soluble; conditions: cell cycle stage: G1/S
Write the value as a bare number.

>>> readout_value("MAATRSPTRARERERSGAPAAGSDQVHSWMLATSQALDTVWRMAKGFVMLAVSFLVAAICYFRRLHLYSGHKLKWWIGYLQRKFKRNLSVEAEVDLLSYCAREWKGETPRNKLMRKAYEELFWRHHIKCVRQVRRDNYDALRSVLFQIFSQGISFPSWMKEKDIVKLPEKLLFSQGCNWIQQYSFGPEKYTGSNVFGKLRKYVELLKTQWTEFNGIRDYHKRGSMCNTLFSDAILEYKLYEALKFIMLYQVTEVYEQMKTKKVIPSLFRLLFSRETSSDPLSFMMNHLNSVGDTCGLEQIDMFILGYSLEVKIKVFRLFKFNSRDFEVCYPEEPLRDWPEISLLTENDRHYHIPVF [FAM105A]")
-0.437

Returns the measured solubility in G1/S (log2) for the input sequence. Input: MEPRAVGVSKQDIREQIWGYMESQNLADFPRPVHHRIPNFKGSYLACQNIKDLDVFARTQEVKVDPDKPLEGVRLLVLQSKKTLLVPTPRLRTGLFNKITPPPGATKDILRKCATSQGVRNYSVPIGLDSRVLVDLVVVGSVAVSEKGWRIGKGEGYADLEYAMMVSMGAVSKETPVVTIVHDCQVVDIPEELVEEHDITVDYILTPTRVIATGCKRPKPMGITWFKISLEMMEKIPILRSLRAREQQAGKDVTLQGEHQHLPEPGCQQTVPLSVGRRPPDTPGPETNSMEAAPGSPPGEGAPLAADVYVGNLPGDARVSDLKRALRELGSVPLRLTWQGPRRRAFLHYPDSAAAQQAVSCLQGLRLGTDTLRVALARQQRDK [MTHFSD]
-0.0248

Returns the measured solubility in G1/S (log2) for the input sequence. Input: MPGLVDSNPAPPESQEKKPLKPCCACPETKKARDACIIEKGEEHCGHLIEAHKECMRALGFKI [COX17]
-0.216
